System: RAW 264.7 cells
Assay: Cytotoxicity assay (MTT viability)
Format: cell-based, Mouse
quantity-kind: IC50 (µM)

CC(=O)O[C@@H]1CCC2=C1C(=O)NC2=O [(−)-5]
128

###

Assay: Cytotoxicity assay (MTT viability)
Format: cell-based, Mouse
Conditions: mouse; RAW 264.7 cells, MTT, 24 h treatment, serum free
Protocol: Mouse macrophage cell line RAW 264.7 was maintained in laboratory at 37° C. in RPMI-1640 media supplemented with 10% heat-inactivated fetal bovine serum (FBS) and penicillin/streptomycin. Viability of cultured cells was determined by (4,5-dimethylthiazol-2-yl)-2,5-diphenyltetrazolium bromide (MTT; Sigma) as described earlier (1). RAW 264.7 was seeded in triplicate at a density of 2×10^4 cells per well on a 96-well plate. […]
# note: boundary value 0.8 mM maps to false; IC50 at 24 h below it maps to true

O=C(Cc1ccccc1)SC12CCC=C1C(=O)NC2=O (centres unmarked)
true
O=C(S[C@]12CC[C@@H](O)[C@H]1C(=O)NC2=O)c1ccccc1 (relative stereo)
true
CC(=O)SC1CC[C@]2(SC(C)=O)C(=O)NC(=O)[C@H]12 (relative stereo)
false
CC(=O)OC1CC[C@]2(SC(=O)c3ccc(F)cc3)C(=O)NC(=O)[C@H]12 (relative stereo)
false
O=C(S[C@@]12CC[C@@H](O)[C@@H]1C(=O)NC2=O)c1ccccc1 (relative stereo)
false
O=C(Cc1ccccc1)S[C@]12CC[C@@H](O)[C@H]1C(=O)NC2=O (relative stereo)
false
CC(=O)S[C@]12CCC[C@H]1C(=O)NC2=O (relative stereo)
true
O=C(S[C@@]12CC[C@@H](O)[C@@H]1C(=O)NC2=O)c1cccs1 (relative stereo)
false
CC(=O)OC1CC[C@]2(SC(=O)Cc3ccccc3)C(=O)NC(=O)[C@H]12 (relative stereo)
false
CC(=O)OC1CCC2=C1C(=O)NC2=O (racemic)
true
O=C(S)c1ccc(O)cc1 [Compound 6, 4-hydroxybenzothioic S-acid]
false
O=C1NC(=O)C2=C1CCC2O (stereo in doubt) [(−)-4]
true
CC(=O)OC1CC[C@]2(SC(=O)c3ccccc3)C(=O)NC(=O)[C@H]12 (relative stereo)
false
O=C(Cc1ccccc1)S[C@]12CCC[C@H]1C(=O)NC2=O (relative stereo)
true
